Measured values drawn from ChEMBL document CHEMBL5512685 for this set.

Tested on: MV4-11
Assay: Antiproliferative activity against human MV4-11 cells assessed as inhibition of cell growth incubated for 120 hrs by celltiter glo luminescence analysis
Type: functional, cell-based
Settings: MV4-11, 120 h
measurement-kind: IC50
A complete answer gives the number followed by the unit.

Below: 2 molecules and their reported IC50.
CC(=O)c1cc(C(=O)Nc2cc(CO)cc(-c3cnn(C)c3)c2F)c2cc(OCCCC(=O)NCCNc3cccc4c3C(=O)N(C3CCC(=O)NC3=O)C4=O)ccn12 (stereo not drawn) = 0.42 µM
CC(=O)c1cc(C(=O)Nc2cc(CO)cc(-c3cnn(C)c3)c2F)c2cc(OCCCCCCCC(=O)NCC#Cc3cccc4c3C(=O)N(C3CCC(=O)NC3=O)C4=O)ccn12 (stereo not drawn) = 3.25 µM

// next item, IC50 requested
Problem: For CC(=O)c1cc(C(=O)Nc2cc(CO)cc(-c3cnn(C)c3)c2F)c2cc(OCCCCC(=O)NCC#Cc3cccc4c3C(=O)N(C3CCC(=O)NC3=O)C4=O)ccn12 (stereo not drawn) , what is its reported IC50?
Result: 21.2 µM
